Source: paper PMC12136788

List of binding signal values.
Biological target: T1, UNK ZnF1-3 (human, UniProt Q9C0B0 31-174)
T1 sequence: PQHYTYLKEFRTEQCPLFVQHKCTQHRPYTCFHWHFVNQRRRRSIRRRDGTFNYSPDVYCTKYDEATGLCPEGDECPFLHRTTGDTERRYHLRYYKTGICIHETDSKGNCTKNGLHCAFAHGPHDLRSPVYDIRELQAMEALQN
Assay: nsRBNS (natural sequence RNA bind-n-seq); RBNS binding buffer (assumed for nsRBNS): 25 mM Tris pH 7.5, 150 mM KCl, 3 mM MgCl2, 0.01% Triton X-100, 500 ug/ml BSA, 20 U/ml SUPERase-In, 4 C; UNK is unkempt and MSI1 is Musashi-1; names of the RNAs are library labels; protein concentration not given here; high values mean tight binding
In all, about 24,000 sequences were measured (“enrichment r”: median about 0.99, highest 2% from about 3.7 on). The entries come from a sample that favours the highest values as a whole.
Just the number please, in enrichment R, no unit attached.

Example entries begin here.
chr2:27118074:27118075:-_ENSMUSG00000009621_ENSMUST00000056176|mus_hu|FALSE|FALSE (ssRNA) RNA: GGGAGUUCUACAGUCCGACGAUCAUUCACAGAUAUAUAACGGGAGAUUUGGAUGAAAUAAUUACAAACUUUUUUCCCCUUAAAAAACAAACAAGCCAAACAAAACACAAACAAAACAAAAACCCCAAAACCAAAACACAAGACCAACAGAGGAUUGAGCAUCA: 3.28
chr7:97619395:97619396:-_ENSMUSG00000030614_ENSMUST00000032843|mus_mus|motif|central (ssRNA) RNA: GGGAGUUCUACAGUCCGACGAUCCAGGGAUGCAUAGGUCUUCAAAGCUUCAUAUUUAACCUUGAAACUGUUUCGGAAAACGGAGUUUGCCAUUAUGCCAGACAAACUACUACUUGUUCCAAAGACCAAAGUUCCAUGUAUAUUCAACAGAGGAUUGAGCAUCA: 0.591
chr17:56552419:56552420:-_ENSMUSG00000013236_ENSMUST00000086828|mus_mus|motif|central (ssRNA) RNA: GGGAGUUCUACAGUCCGACGAUCUUUGUUUUUUUCUUAAAAAAAAAAAAGAAAAAAAGAAAAAGAAAAAAAAUAUACACGGUUAAAAAAAAAUAAGAAAAAAAAUGUUGCCAAAAGGCAGGCAGGGGAGUGCGGAAGCAGAGGCAACAGAGGAUUGAGCAUCA: 15.8
chr2:65539780:65539781:-_ENSG00000198369_ENST00000356388|hu_hu|motif|central (ssRNA) RNA: GGGAGUUCUACAGUCCGACGAUCUUUGCAAAACAACAAGCAAAAUUUCUUACUUCACUAGUAUCCUAUUCUAAUAUUGCGGAAUUUUUAGAAGUGGUGGCAACACAAUUUAAAAAAUGUUCUACUUUAGGGGUAAUGGGGAGGCAACAGAGGAUUGAGCAUCA: 3.44
chr7:34927866:34927867:-_ENSMUSG00000052997_ENSMUST00000102746|mus_mus|FALSE|FALSE (ssRNA) RNA: GGGAGUUCUACAGUCCGACGAUCGCUUUUGGCAGCAUCUUCAGCUUGUUUUGGCCCCACUUUUUCAGGGCUGUCACCAACUACUUCAAAUUCAACAUCCUUUCCAAGAUCUUCACUAUGAAGAAUGUUGAUCAGCAAAGUAUACAACAGAGGAUUGAGCAUCA: 0.727
107960272_107965159_2041_CDS_ENSG00000166266_ENST00000393094|human|control|control (ssRNA) RNA: GGGAGUUCUACAGUCCGACGAUCUCUAGCAAGCUUGUUUACAUAAUCCGCUGGCAUACCAACUUCUCUUAGCCACUCUACCAUGUUUUCUUCAAUUUCACUAUCGGCAGAGAUGUCUAAUAUAAGACGUCGUGUCAAAUGAGCCAACAGAGGAUUGAGCAUCA: 0.643

Endpoint output: binding signal of chr22:19452774:19452775:-_ENSG00000070010_ENST00000399523|hu_hu|hu_hu_hu_mus_False|18_88 (ssRNA) RNA: GGGAGUUCUACAGUCCGACGAUCCUUCUCAUUGUAGUUGAUAGCAAUCACAUCCCCAGUCGUCAGACAGGCGAAGUUUCUCAAUGCAUUUUCUAAUACCGCUUUAGGGUUGGUAAUGUCCAGGAAGUCUGGGCUCUGAGGCUGCAACAGAGGAUUGAGCAUCA . Value?
0.83
